The values you see were collected from ChEMBL document CHEMBL1201862.

For each record, write down the corresponding EC50.
Target: UniProtKB Q9XUB2
Sequence (Q9XUB2 whole entry): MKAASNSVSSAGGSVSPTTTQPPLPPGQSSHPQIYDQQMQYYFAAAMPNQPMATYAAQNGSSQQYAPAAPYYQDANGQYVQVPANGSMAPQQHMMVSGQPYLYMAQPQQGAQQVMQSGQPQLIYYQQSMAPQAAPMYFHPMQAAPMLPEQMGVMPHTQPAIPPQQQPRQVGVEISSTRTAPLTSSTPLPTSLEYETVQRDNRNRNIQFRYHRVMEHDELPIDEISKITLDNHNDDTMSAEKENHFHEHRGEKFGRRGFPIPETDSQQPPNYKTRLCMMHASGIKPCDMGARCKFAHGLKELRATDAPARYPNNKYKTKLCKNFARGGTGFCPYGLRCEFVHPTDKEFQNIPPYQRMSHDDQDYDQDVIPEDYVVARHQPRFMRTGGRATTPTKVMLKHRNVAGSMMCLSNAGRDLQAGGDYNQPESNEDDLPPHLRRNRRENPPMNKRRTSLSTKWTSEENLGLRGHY
Assay: potency of MEX-5 RNA-binding blockers – biochemical, C. elegans, fluorescence polarization, dose response (AID 1960)
Active and inactive are the calls of the source. No stated cut-off is given here; in the data, actives have a measured EC50 and inactives only a lower limit.

Please look up its EC50: COCCn1c(N)c(NCc2ccccc2)c(=O)[nH]c1=O 3.03 µM (active)

Please look up its EC50: COc1cc2c(cc1OC)C(c1ccc(-c3ccc(Cl)c(Cl)c3)o1)=NCC2 > 300 µM (not active)

Please look up its EC50: CCOC(=O)C1=C2NC(=O)c3ccccc3N2C(=O)C1 38.8 µM (active)

Please look up its EC50: CN(C)c1ccc(O)c2c1CC1CC3C(N(C)C)C(=O)C(C(N)=O)=C(O)[C@@]3(O)C(=O)C1=C2O (stereo not given in full) 37 µM (active)

Please look up its EC50: CC(Cc1ccc(O)c(O)c1)C(C)Cc1ccc(O)c(O)c1 (stereo not given) [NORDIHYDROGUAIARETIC ACID] 8.75 µM (active)

Please look up its EC50: O=C(O)c1ccc(S(=O)(=O)/N=C2\C=C(Nc3ccccc3F)C(=O)c3ccccc32)cc1 60.8 µM (active)

Please look up its EC50: COc1c(O)cc2oc(-c3ccc(O)c(O)c3)cc(=O)c2c1O 36 µM (active)

Please look up its EC50: Cc1cc([N+](=O)[O-])cc2c1NCC1CC=CC21 (stereo not given) > 300 µM (not active)

Please look up its EC50: Cc1ccc(N2C(=O)NC(=O)/C(=C/c3cnn(-c4ccc(C)cc4)c3)C2=O)cc1 67.5 µM (active)

Please look up its EC50: O=C(O)c1ccccc1-n1cccc1C(=O)O > 300 µM (not active)

###

Target: UniProt P38532
Sequence (P38532 whole entry): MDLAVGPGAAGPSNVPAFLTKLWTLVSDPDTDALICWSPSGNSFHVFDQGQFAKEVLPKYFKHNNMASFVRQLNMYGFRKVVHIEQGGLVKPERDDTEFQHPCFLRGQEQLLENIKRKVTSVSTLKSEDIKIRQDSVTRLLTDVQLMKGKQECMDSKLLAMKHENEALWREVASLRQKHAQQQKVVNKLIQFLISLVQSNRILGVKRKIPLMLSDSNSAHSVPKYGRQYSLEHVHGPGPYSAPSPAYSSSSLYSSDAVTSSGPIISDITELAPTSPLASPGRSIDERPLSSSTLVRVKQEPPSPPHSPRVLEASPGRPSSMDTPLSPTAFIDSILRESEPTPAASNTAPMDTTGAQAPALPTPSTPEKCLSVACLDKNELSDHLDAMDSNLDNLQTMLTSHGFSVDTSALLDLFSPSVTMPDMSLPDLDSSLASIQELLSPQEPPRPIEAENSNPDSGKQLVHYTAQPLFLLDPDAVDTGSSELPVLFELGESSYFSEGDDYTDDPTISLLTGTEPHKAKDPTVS
Assay: decrease of HSF1-responsive luciferase luminescence – cell-based, NIH3T3, dose retest, confirmation (AID 2382);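 further: NIH3T3 fibroblasts with HSF1-driven luciferase reporter stressed by proteasome inhibitor MG132; luminescence from HSF1-driven luciferase expression after 8 hours of MG132 stress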
Assay type: functional
Calls of active or inactive are those of the source. Rule as the data show it: actives have a measured EC50 and inactives only a lower limit.
PROPERTY NAME: EC50

Please look up its EC50: COc1ccc(-n2c(C)c(C)c3c(N)ncnc32)cc1 37.9 µM (active)

Please look up its EC50: CN1Cc2sc(NC(=S)NC(=O)c3ccccc3)c(C#N)c2CC1(C)C 13.9 µM (active)

Please look up its EC50: Cc1ccc(N2C(=O)NC(=O)/C(=C/c3cnn(-c4ccc(C)cc4)c3)C2=O)cc1 > 195 µM (not active)

Please look up its EC50: COc1cc2c(cc1OC)C(c1ccc(-c3ccc(Cl)c(Cl)c3)o1)=NCC2 > 195 µM (not active)

Please look up its EC50: Cc1ccc2oc(N=C(N)NC(=O)C(C)(C)C)nc2c1 < 0.16 µM (active)

Please look up its EC50: CCc1ccc(C(=O)COC(=O)CNC(=O)c2cccs2)cc1 > 195 µM (not active)

Please look up its EC50: O=C(CN1CCN(C(c2ccccc2)c2ccccc2)CC1)N1CCOCC1 > 195 µM (not active)

Please look up its EC50: COc1ccc(OCCN2C(=O)c3ccccc3C2=O)cc1 > 195 µM (not active)

Please look up its EC50: O=C(O)CCNS(=O)(=O)c1ccccc1C(F)(F)F > 195 µM (not active)

Please look up its EC50: CCOC(=O)Cc1csc(NC(=O)Nc2cccs2)n1 > 195 µM (not active)
